Hello, the source for this data is patent US20250235543A1, in case you need it.

Molecular target: CDK4 (Homo sapiens)
Construct: endogenous in cells; host or cells: Calu-1
Sequence (P11802 2-303 limits assumed): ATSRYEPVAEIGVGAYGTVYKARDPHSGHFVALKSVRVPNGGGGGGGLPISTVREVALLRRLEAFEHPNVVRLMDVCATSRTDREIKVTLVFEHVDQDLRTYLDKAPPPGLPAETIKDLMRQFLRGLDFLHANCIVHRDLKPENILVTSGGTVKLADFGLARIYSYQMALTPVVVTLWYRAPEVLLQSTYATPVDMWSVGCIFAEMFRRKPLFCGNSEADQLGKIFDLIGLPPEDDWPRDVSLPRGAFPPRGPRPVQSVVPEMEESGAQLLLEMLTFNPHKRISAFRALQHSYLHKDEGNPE
Sequence (P24385 whole entry partner): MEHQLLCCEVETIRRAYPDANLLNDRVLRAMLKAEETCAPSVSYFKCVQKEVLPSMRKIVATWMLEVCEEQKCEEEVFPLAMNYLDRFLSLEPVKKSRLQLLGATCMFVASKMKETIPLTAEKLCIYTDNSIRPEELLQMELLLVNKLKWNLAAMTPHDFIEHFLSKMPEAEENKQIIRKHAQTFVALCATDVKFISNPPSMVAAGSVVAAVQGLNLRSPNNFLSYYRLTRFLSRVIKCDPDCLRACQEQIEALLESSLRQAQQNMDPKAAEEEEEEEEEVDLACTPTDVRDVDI
Sequence (Q16531 2-1140 limits assumed, further chain): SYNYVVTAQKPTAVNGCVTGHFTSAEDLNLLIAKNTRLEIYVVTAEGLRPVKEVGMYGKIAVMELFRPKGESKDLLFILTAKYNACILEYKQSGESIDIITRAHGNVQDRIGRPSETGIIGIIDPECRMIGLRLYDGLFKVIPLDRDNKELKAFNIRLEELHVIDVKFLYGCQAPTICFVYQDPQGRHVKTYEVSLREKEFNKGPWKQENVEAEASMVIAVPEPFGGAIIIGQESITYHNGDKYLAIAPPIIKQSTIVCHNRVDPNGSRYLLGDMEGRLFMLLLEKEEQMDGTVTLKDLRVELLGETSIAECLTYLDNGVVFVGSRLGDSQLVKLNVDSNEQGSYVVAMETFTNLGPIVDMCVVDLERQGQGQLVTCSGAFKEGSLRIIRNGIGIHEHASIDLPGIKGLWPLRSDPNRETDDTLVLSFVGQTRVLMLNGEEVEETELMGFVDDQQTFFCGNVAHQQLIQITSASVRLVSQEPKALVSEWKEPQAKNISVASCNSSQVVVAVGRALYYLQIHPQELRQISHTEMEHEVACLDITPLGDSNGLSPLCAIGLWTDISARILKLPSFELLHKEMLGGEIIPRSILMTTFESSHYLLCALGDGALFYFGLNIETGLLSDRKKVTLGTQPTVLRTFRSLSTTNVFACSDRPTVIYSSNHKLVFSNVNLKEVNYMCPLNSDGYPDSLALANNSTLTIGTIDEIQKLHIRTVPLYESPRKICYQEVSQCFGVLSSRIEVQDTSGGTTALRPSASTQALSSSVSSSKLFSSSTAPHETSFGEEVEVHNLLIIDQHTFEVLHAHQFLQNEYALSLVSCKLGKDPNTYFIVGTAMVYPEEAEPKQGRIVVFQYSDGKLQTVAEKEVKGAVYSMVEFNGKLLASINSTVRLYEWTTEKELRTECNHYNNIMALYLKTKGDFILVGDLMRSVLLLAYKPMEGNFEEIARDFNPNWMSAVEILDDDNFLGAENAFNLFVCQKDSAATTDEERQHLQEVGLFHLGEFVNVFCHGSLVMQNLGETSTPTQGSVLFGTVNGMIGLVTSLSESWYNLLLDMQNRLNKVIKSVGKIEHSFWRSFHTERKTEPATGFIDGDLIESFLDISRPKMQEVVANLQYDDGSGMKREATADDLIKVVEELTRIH
Experiment: CDK4 percentage degradation in Calu-1 cells (immunoblotting)
Assay type: cell-based
Conditions: Calu-1 cells, 200 nM, 16 hours; read-out: CDK4 Degradation (200 nM)
Property: inhibition at 0.2 µM

Reference set, count: 3
CC(=O)c1c(C)c2cnc(Nc3ccc(N4CCN(CC(=O)NCCCCCNc5cc(Cl)ccc5C(=O)Nc5ccc(N(C)C)nn5)CC4)cn3)nc2n(C2CCCC2)c1=O: 50 to 80%
COc1ccc(NC(=O)c2ccccc2NC(=O)COCCO[C@H]2CC[C@H](NC(=O)CN3CCN(c4ccc(Nc5ncc6c(C)c(C(C)=O)c(=O)n(C7CCCC7)c6n5)nc4)CC3)CC2)nn1: < 30%
CC(=O)c1c(C)c2cnc(Nc3ccc(N4CCN(CC(=O)NCCOCCOCCC(=O)Nc5cc(N(C)C)ccc5C(=O)Nc5nc(C)c(C)s5)CC4)cn3)nc2n(C2CCCC2)c1=O: 50 to 80%

Please give the measured inhibition at 0.2 µM for this molecule: `COc1ccc(NC(=O)c2ccccc2NC(=O)CCCCN2CCC(NC(=O)CN3CCN(c4ccc(Nc5ncc6c(C)c(C(C)=O)c(=O)n(C7CCCC7)c6n5)nc4)CC3)CC2)nn1`
50 to 80%
